Entry source: patent US20060121042A1

In this section we review reported kon values for a set of binders.
ASSAYED SYSTEM: T1, Human EphA4-Fc fusion protein (human, UniProt P54764 20-547)
T1 construct: not shown: Fc portion of a human IgG1
T1 sequence (P54764 20-547): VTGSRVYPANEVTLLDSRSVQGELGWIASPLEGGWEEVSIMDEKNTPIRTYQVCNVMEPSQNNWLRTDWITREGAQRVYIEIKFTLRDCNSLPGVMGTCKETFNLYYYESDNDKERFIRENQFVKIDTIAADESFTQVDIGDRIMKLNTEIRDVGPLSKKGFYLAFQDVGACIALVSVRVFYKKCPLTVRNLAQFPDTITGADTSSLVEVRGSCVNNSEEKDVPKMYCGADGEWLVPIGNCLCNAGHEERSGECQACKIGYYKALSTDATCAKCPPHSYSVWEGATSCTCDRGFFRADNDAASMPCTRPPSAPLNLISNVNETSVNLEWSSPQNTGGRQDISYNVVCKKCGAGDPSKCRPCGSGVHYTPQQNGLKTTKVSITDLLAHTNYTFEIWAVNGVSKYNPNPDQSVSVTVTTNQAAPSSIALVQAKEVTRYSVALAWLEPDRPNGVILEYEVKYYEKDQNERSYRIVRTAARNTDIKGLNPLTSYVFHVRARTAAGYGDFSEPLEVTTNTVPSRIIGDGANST
ASSAY PROTOCOL: BIAcore, IgG immobilized on the sensor chip, EphA4-Fc as analyte
Just the number in M⁻¹ s⁻¹, nothing appended.

Consider the following illustrative entries.
2C9 IgG1 (affinity optimized combinatorial variant of mAb GEA44 in human IgG1 format) (antibody, V domains shown) VH: QVQLLQSGAEVKKPGASVKVPCKASGYTFTSRAMSWVRQAPGQGLEWMGWINTNTGNPTYAQGFTGRFVFSLDTSVSTAYLQISSLKAEDTAVYYCARVRFTVYGDGMDVWGQGTLVTVSS VL: EIVLTQSPATLSVSPGERATLSCRASQSVSSNLAWYQQKPGQAPRLLIYGASTRPTGIPDRFSASGSGTDFTLTISRVEPEDFAVYYCQQYGPSWTFGQGTKVEIK; 434000
1D11 IgG1 (affinity optimized combinatorial variant of mAb GEA44 in human IgG1 format) (antibody, V domains shown) VH: QVQLLQSGAEVKKPGASVKVPCKASGYTFTSRAMSWVRQAPGQGLEWMGWINTNTGNPTYAQGFTGRFVFSLDTSVSTAYLQISSLKAEDTAVYYCARVRTTVYGDNMDVWGQGTLVTVSS VL: EIVLTQSPATLSVSPGERATLSCRASQSVSSNLPWYQQKPGQAPRLLIYGASTRATGIPDRFSASGSGTDFTLTISRVEPEDFAVYYCQQYGPSWTFGQGTKVEIK; 350000
8B4 IgG1 (affinity optimized combinatorial variant of mAb GEA44 in human IgG1 format) (antibody, V domains shown) VH: QVQLLQSGAEVKKPGASVKVPCKASGYTFTSRAMSWVRQAPGQGLEWMGWINTNTGNPTYAQGFTGRFVFSLDTSVSTAYLQISSLKAEDTAVYYCARVRLTVYGDGMDVWGQGTLVTVSS VL: EIVLTQSPATLSVSPGERATLSCRASQSVSSNPAWYQQKPGQAPRLLIYGLSTRATGIPDRFSASGSGTDFTLTISRVEPEDFAVYYCQQYGPSWTFGQGTKVEIK; 112000
1G11 IgG1 (affinity optimized combinatorial variant of mAb GEA44 in human IgG1 format) (antibody, V domains shown) VH: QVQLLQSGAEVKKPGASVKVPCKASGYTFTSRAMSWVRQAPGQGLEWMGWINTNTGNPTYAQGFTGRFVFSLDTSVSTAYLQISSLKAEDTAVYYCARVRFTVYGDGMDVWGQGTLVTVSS VL: EIVLTQSPATLSVSPGERATLSCRASQSVSSNLPWYQQKPGQAPRLLIYGASTRPTGIPDRFSASGSGTDFTLTISRVEPEDFAVYYCQQYGPSWTFGQGTKVEIK; 172000

Let us examine a further case.
The value of kon measured for the binder 1A4 IgG1 (affinity optimized combinatorial variant of mAb GEA44 in human IgG1 format) (antibody, V domains shown) VH: QVQLLQSGAEVKKPGASVKVPCKASGYTFTSRAMSWVRQAPGQGLEWMGWINTNTGNPTYAQGSTGRFVFSLDTSVSTAYLQISSLKAEDTAVYYCARVRFTVYGDGMDVWGQGTLVTVSS VL: EIVLTQSPATLSVSPGERATLSCRASQSVSSNPAWYQQKPGQAPRLLIYGASTRATGIPDRFSASGSGTDFTLTISRVEPEDFAVYYCQQYGPSWTFGQGTKVEIK turned out to be 769000
